The origin of these recorded values is ChEMBL document CHEMBL4184232.

Test system: A549
method_notes: Antiproliferative activity against human A549 cells incubated for 72 hrs by SRB assay
Type: functional, cell-based
stated_conditions: A549, 72 h
pIC50: −log10 of the molar value.
Each record here notes measured pIC50.
quantity_kind: pIC50

>>> measurement("O=C(CN1C(=O)[C@@H]2CN(C(=O)c3ccc(-c4ccccc4)cc3)CCN2C(=O)c2ccccc21)OCc1ccccc1")
4.47
>>> measurement("O=C1Nc2ccc(Br)cc2C(=O)N2CCN(C(=O)c3ccc(-c4ccccc4)cc3)C[C@@H]12")
4.32
>>> measurement("CN1C(=O)[C@@H]2CN(C(=O)c3ccc(-c4ccccc4)cc3)CCN2C(=O)c2ccccc21")
4.04

----------
Quick reference for IC50 among some compounds
Test system: A2780
method_notes: Antiproliferative activity against human A2780 cells incubated for 72 hrs by SRB assay
Type: functional, cell-based
stated_conditions: A2780, 72 h
quantity_kind: IC50 (µM)

>>> measurement("CN1C(=O)[C@@H]2CN(C(=O)c3ccc(-c4ccccc4)cc3)CCN2C(=O)c2ccccc21")
64.5
>>> measurement("O=C(c1ccc(-c2ccccc2)cc1)N1CCN2C(=O)c3ccccc3N(Cc3ccccc3)C(=O)[C@@H]2C1")
62.8
>>> measurement("O=C(CN1C(=O)[C@@H]2CN(C(=O)c3ccc(-c4ccccc4)cc3)CCN2C(=O)c2ccccc21)OCc1ccccc1")
28
>>> measurement("O=C(O)CN1C(=O)[C@@H]2CN(C(=O)c3ccc(-c4ccccc4)cc3)CCN2C(=O)c2ccccc21")
19.6
>>> measurement("O=C1Nc2ccccc2C(=O)N2CCN(C(=O)c3ccc(-c4ccccc4)cc3)C[C@@H]12")
35.8
>>> measurement("O=C1Nc2ccc(Cl)cc2C(=O)N2CCN(C(=O)c3ccc(-c4ccccc4)cc3)C[C@@H]12")
29.7
>>> measurement("O=C1Nc2ccc(Br)cc2C(=O)N2CCN(C(=O)c3ccc(-c4ccccc4)cc3)C[C@@H]12")
28.2

----------
Tested on: MV4-11
method_notes: Antiproliferative activity against human MV4-11 cells incubated for 72 hrs by SRB assay
Type: functional, cell-based
stated_conditions: MV4-11, 72 h
Threshold 40 µM. IC50 below it: True. IC50 at it or above: False.

>>> label_value("O=C1Nc2ccccc2C(=O)N2CCN(C(=O)c3ccccc3)C[C@@H]12")
"True"
>>> label_value("O=C1Nc2ccccc2C(=O)N2CCN(C(=O)c3ccc(Cl)cc3)C[C@@H]12")
"True"
>>> label_value("O=C(c1ccc(-c2ccccc2)cc1)N1CCN2C(=O)c3ccccc3N(Cc3ccccc3)C(=O)[C@@H]2C1")
"True"
>>> label_value("O=C1Nc2ccccc2C(=O)N2CCN(C(=O)c3ccccc3)C[C@H]12")
"True"
>>> label_value("O=C1Nc2ccccc2C(=O)N2CCN(C(=O)c3ccccc3I)C[C@@H]12")
"False"
>>> label_value("O=C(CN1C(=O)[C@@H]2CN(C(=O)c3ccc(-c4ccccc4)cc3)CCN2C(=O)c2ccccc21)OCc1ccccc1")
"False"
>>> label_value("O=C1Nc2ccccc2C(=O)N2CCN(C(=O)c3ccc(Cl)cc3)C[C@H]12")
"True"
>>> label_value("CN1C(=O)[C@@H]2CN(C(=O)c3ccc(-c4ccccc4)cc3)CCN2C(=O)c2ccccc21")
"False"
>>> label_value("O=C1Nc2ccc(Br)cc2C(=O)N2CCN(C(=O)c3ccc(-c4ccccc4)cc3)C[C@@H]12")
"True"
>>> label_value("O=C(O)CN1C(=O)[C@@H]2CN(C(=O)c3ccc(-c4ccccc4)cc3)CCN2C(=O)c2ccccc21")
"True"
>>> label_value("O=C1Nc2ccccc2C(=O)N2CCN(C(=O)c3ccc(-c4ccccc4)cc3)C[C@@H]12")
"True"

----------
compounds and their reported pIC50
Tested on: LoVo
method_notes: Antiproliferative activity against human LoVo cells incubated for 72 hrs by SRB assay
Assay type: functional, cell-based
pIC50: −log10 of the molar value.
quantity_kind: pIC50

>>> measurement("O=C1Nc2ccc(Cl)cc2C(=O)N2CCN(C(=O)c3ccc(-c4ccccc4)cc3)C[C@@H]12")
4.54
>>> measurement("O=C(CN1C(=O)[C@@H]2CN(C(=O)c3ccc(-c4ccccc4)cc3)CCN2C(=O)c2ccccc21)OCc1ccccc1")
4.64
>>> measurement("O=C1Nc2ccccc2C(=O)N2CCN(C(=O)c3ccc(-c4ccccc4)cc3)C[C@@H]12")
4.26
>>> measurement("O=C1Nc2ccc(Br)cc2C(=O)N2CCN(C(=O)c3ccc(-c4ccccc4)cc3)C[C@@H]12")
4.66

----------
pIC50 by entry:
Tested on: A549
method_notes: Antiproliferative activity against human A549 cells incubated for 72 hrs by SRB assay
Type: functional, cell-based
stated_conditions: A549, 72 h
pIC50: −log10 of the molar value.
quantity_kind: pIC50

>>> measurement("O=C1Nc2ccccc2C(=O)N2CCN(C(=O)c3ccc(-c4ccccc4)cc3)C[C@@H]12")
4.02
>>> measurement("O=C1Nc2ccc(Cl)cc2C(=O)N2CCN(C(=O)c3ccc(-c4ccccc4)cc3)C[C@@H]12")
4.29
>>> measurement("O=C(O)CN1C(=O)[C@@H]2CN(C(=O)c3ccc(-c4ccccc4)cc3)CCN2C(=O)c2ccccc21")
5.49
>>> measurement("O=C(c1ccc(-c2ccccc2)cc1)N1CCN2C(=O)c3ccccc3N(Cc3ccccc3)C(=O)[C@@H]2C1")
3.98

----------
System: LoVo
method_notes: Antiproliferative activity against human LoVo cells incubated for 72 hrs by SRB assay
Assay type: functional, cell-based
Entries annotated with measured IC50
quantity_kind: IC50 (µM)

>>> measurement("O=C(O)CN1C(=O)[C@@H]2CN(C(=O)c3ccc(-c4ccccc4)cc3)CCN2C(=O)c2ccccc21")
27.6
>>> measurement("CN1C(=O)[C@@H]2CN(C(=O)c3ccc(-c4ccccc4)cc3)CCN2C(=O)c2ccccc21")
58.3
>>> measurement("O=C(c1ccc(-c2ccccc2)cc1)N1CCN2C(=O)c3ccccc3N(Cc3ccccc3)C(=O)[C@@H]2C1")
11

----------
Test system: MCF7
method_notes: Antiproliferative activity against human MCF7 cells incubated for 72 hrs by SRB assay
Format: functional, cell-based
stated_conditions: MCF7, 72 h
Examples of molecules with documented IC50 follow.
quantity_kind: IC50 (µM)

>>> measurement("O=C(c1ccc(-c2ccccc2)cc1)N1CCN2C(=O)c3ccccc3N(Cc3ccccc3)C(=O)[C@@H]2C1")
35.8
>>> measurement("O=C1Nc2ccccc2C(=O)N2CCN(C(=O)c3ccc(-c4ccccc4)cc3)C[C@@H]12")
47.3
>>> measurement("O=C1Nc2ccc(Cl)cc2C(=O)N2CCN(C(=O)c3ccc(-c4ccccc4)cc3)C[C@@H]12")
50.9
>>> measurement("CN1C(=O)[C@@H]2CN(C(=O)c3ccc(-c4ccccc4)cc3)CCN2C(=O)c2ccccc21")
77.5
>>> measurement("O=C(CN1C(=O)[C@@H]2CN(C(=O)c3ccc(-c4ccccc4)cc3)CCN2C(=O)c2ccccc21)OCc1ccccc1")
147
>>> measurement("O=C1Nc2ccc(Br)cc2C(=O)N2CCN(C(=O)c3ccc(-c4ccccc4)cc3)C[C@@H]12")
57
>>> measurement("O=C(O)CN1C(=O)[C@@H]2CN(C(=O)c3ccc(-c4ccccc4)cc3)CCN2C(=O)c2ccccc21")
7.6

----------
System: MV4-11
method_notes: Antiproliferative activity against human MV4-11 cells incubated for 72 hrs by SRB assay
Assay type: functional, cell-based
stated_conditions: MV4-11, 72 h
quantity_kind: IC50 (µM)

>>> measurement("O=C1Nc2ccccc2C(=O)N2CCN(C(=O)c3ccccc3I)C[C@H]12")
39.8
>>> measurement("O=C1Nc2ccc(Cl)cc2C(=O)N2CCN(C(=O)c3ccc(-c4ccccc4)cc3)C[C@@H]12")
40.7
>>> measurement("O=C1Nc2ccccc2C(=O)N2CCN(C(=O)c3ccc(-c4ccccc4)cc3)C[C@H]12")
39.6
